Target: hmGluR1 receptor (Homo sapiens, UniProt Q13255)
Construct: expressed in transfected cells; host or cells: CHO
Sequence (Q13255 19-1194): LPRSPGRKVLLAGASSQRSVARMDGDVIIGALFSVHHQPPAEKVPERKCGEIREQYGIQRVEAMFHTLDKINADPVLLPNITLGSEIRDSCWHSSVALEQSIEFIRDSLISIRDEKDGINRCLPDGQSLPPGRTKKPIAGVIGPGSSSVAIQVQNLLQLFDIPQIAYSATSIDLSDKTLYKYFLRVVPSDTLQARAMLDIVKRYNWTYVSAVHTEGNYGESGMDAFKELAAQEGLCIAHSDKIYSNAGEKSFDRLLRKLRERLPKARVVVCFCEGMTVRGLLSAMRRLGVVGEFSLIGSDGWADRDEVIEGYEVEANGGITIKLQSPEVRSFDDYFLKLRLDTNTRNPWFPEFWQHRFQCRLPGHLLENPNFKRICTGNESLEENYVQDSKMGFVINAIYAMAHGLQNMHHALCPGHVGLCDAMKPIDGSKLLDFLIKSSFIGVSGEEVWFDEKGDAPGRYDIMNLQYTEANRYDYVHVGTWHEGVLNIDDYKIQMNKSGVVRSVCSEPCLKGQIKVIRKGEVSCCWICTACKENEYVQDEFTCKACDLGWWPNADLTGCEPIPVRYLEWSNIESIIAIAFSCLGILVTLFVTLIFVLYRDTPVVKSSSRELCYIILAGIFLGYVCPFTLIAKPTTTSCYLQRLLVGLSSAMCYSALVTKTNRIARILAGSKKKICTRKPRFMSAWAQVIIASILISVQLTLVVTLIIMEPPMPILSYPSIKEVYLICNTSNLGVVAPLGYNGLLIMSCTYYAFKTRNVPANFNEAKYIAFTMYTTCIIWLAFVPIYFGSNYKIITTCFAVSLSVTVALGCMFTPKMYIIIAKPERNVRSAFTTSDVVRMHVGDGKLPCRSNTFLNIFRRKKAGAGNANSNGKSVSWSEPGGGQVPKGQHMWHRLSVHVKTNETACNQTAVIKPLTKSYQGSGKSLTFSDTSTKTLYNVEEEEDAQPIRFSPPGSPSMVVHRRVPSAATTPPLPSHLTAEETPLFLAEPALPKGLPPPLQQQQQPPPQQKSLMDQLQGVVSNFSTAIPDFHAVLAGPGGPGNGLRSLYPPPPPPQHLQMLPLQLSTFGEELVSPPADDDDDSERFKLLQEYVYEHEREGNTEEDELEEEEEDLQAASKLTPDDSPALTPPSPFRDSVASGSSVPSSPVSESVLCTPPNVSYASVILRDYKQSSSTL
Assay: IC50 determination: intracellular calcium mobilization (FLIPR) upon Quisqualate stimulation in CHO cell line stably expressing hmGluR1
Format: cell-based
Conditions: CHO cells expressing hmGluR1; against Quisqualate 1 μM (EC80); compounds added 10 minutes before Quisqualate; read-out: mGluR1 IC50
Readout Name: pIC50
The scale used: pIC50 is minus the common logarithm of the concentration in molar units.

// query // returns reported pIC50 for input O=c1c2sc3nccc(NC4CC4)c3c2cnn1-c1ccc(Cl)cc1 [Compound 23A]
// result 7.86

// query What value of pIC50 has been reported for the following compound? CN(C)c1ccnc2sc3c(=O)n(-c4ccc5ncsc5c4)ncc3c12 [Compound 9F]
// result 8.11

// query For COc1ccnc2sc3c(=O)n(-c4ccc(C)cc4)ncc3c12 [Compound 21C] , what is its reported pIC50?
// result 7.89
